biological target: Human CD4 on CD4+CD25+ regulatory T cells of healthy donors (human, UniProt P01730 26-458); experiment: cell-based or functional assay
# Lookup of reported % Inh1 keyed by entry
Numeric answer only, unit % assumed.

Please report % Inh1 for the following binder: LC master HC S101T (antibody, V domains shown) VH: EEQLVESGGGLVKPGGSLRLSCAASGFSFSDCRMYWLRQAPGKGLEWIGVISVKSENYGANYAESVRGRFTISRDDSKNTVYLQMNSLKTEDTAVYYCSATYYRYDVGAWFAYWGQGTLVTVSS VL: DIVMTQSPDSLAVSLGERATINCRASKSVSTSGYSYIYWYQQKPGQPPKLLIYLASILESGVPDRFSGSGSGTDFTLTISSLQAEDVAVYYCQHSRELPWTFGQGTKVEIKR
3.1

Please look at this binder and report its % Inh1: LC master HC R33K (antibody, V domains shown) VH: EEQLVESGGGLVKPGGSLRLSCAASGFSFSDCKMYWLRQAPGKGLEWIGVISVKSENYGANYAESVRGRFTISRDDSKNTVYLQMNSLKTEDTAVYYCSASYYRYDVGAWFAYWGQGTLVTVSS VL: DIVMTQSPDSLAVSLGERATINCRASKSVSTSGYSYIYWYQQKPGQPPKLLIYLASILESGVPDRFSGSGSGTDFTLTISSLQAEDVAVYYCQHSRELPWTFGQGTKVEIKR
19.8

Note % Inh1 for the binder shown: LC A55G HC R33K (antibody, V domains shown) VH: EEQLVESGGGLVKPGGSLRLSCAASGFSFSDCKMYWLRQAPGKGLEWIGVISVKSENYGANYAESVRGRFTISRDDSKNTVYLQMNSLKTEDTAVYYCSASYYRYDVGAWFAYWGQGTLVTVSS VL: DIVMTQSPDSLAVSLGERATINCRASKSVSTSGYSYIYWYQQKPGQPPKLLIYLGSILESGVPDRFSGSGSGTDFTLTISSLQAEDVAVYYCQHSRELPWTFGQGTKVEIKR
12.1

Dear colleague, please send me the reported % Inh1 for LC master HC A63G (antibody, V domains shown) VH: EEQLVESGGGLVKPGGSLRLSCAASGFSFSDCRMYWLRQAPGKGLEWIGVISVKSENYGANYGESVRGRFTISRDDSKNTVYLQMNSLKTEDTAVYYCSASYYRYDVGAWFAYWGQGTLVTVSS VL: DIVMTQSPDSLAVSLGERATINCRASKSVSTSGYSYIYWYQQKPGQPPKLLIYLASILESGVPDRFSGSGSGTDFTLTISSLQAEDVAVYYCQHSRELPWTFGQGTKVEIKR when you can.
33.1
